- tested.target: UniProt:Q9NYK1
- Sequence (Q9NYK1 27-1049): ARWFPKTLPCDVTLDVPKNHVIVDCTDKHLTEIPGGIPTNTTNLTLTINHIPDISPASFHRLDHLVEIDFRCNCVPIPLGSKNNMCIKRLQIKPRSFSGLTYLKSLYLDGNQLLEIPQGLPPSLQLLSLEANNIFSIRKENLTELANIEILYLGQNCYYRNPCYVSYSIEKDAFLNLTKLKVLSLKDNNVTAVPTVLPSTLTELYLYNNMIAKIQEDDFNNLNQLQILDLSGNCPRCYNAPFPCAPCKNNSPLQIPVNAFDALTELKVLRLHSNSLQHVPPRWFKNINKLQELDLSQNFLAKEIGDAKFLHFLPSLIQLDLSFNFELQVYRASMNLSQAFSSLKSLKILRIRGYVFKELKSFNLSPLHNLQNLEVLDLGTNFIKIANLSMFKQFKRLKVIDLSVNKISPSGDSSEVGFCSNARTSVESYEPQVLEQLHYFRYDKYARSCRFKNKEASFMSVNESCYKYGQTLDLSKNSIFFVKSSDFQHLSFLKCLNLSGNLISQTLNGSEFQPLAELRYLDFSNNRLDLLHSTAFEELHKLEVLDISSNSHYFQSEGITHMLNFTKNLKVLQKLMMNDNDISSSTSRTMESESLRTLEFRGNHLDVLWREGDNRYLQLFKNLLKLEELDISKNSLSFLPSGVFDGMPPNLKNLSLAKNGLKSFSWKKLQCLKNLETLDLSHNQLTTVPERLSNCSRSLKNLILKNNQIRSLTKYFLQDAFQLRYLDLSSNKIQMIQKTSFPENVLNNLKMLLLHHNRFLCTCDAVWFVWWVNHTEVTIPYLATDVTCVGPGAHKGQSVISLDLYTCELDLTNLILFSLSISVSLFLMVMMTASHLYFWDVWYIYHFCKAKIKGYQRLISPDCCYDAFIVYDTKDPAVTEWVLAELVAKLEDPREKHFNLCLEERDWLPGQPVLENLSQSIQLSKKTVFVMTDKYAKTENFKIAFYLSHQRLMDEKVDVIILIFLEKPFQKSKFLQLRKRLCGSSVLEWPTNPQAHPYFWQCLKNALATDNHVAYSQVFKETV
- protocol: HEK-Blue human TLR7 cells NF-κB SEAP reporter assay
- condition: stimulation for 20 hours
reported.metric: EC50 (µM)

# input Given the molecule `CCCN(CCC)C(=O)C1=Cc2ccc(-c3cccc(S(=O)(=O)N4CC(O)C4)c3)cc2N=C(N)C1` , what is its reported EC50?
# output 17

# input Given the molecule `CCCN(CCC)C(=O)C1=Cc2ccc(-c3cccc(S(=O)(=O)N4CC[C@@H](O)C4)c3)cc2N=C(N)C1` , what is its reported EC50?
# output 18

a = CCCN(CCC)C(=O)C1=Cc2ccc(-c3cccc(S(=O)(=O)N4CC[C@H](O)C4)c3)cc2N=C(N)C1
b = CCCN(CCC)C(=O)C1=Cc2ccc(-c3cccc(S(=O)(=O)N4CCC(O)C4)c3)cc2N=C(N)C1 (stereo not shown)
# input Of a and b , whose reported EC50 is the larger number? When you have decided, please share the label of that item.
# output b
(b: 103 µM, a: 24 µM)
